- Tested on: P. falciparum 3D7 trophozoites
- Run Description: Metabolomic fingerprint profiling LC-MS
- Format: cell-based, Plasmodium falciparum
- Test Conditions: metabolite level change after treatment
Metric Name: Pyrophosphate

Q. Requested read-out: Pyrophosphate. Entry: "Cc1cccc(Nc2nc(N)c3ccccc3n2)c1"
A. -0.02007

Q. Requested read-out: Pyrophosphate. Entry: COc1ccc2c(c1)OC(O)(C(F)(F)C(F)(F)F)CC2=O (stereo not shown)
A. 0.1105

Q. Requested read-out: Pyrophosphate. Entry: "Cc1ccc(-c2cc3nc4c(c(O)n3n2)CCCC4)cc1"
A. -0.6696

Q. Requested read-out: Pyrophosphate. Entry: Cc1cc(NC(=O)C2c3ccccc3C(=O)N(CC(C)C)C2c2cccs2)no1 (stereo not shown)
A. -1.06

Q. Requested read-out: Pyrophosphate. Entry: "CN(C)CCCNc1c2ccccc2nc2ccccc12"
A. 0.1028

Q. Requested read-out: Pyrophosphate. Entry: "CCOC(=O)c1c(C)n(-c2ccc(Cl)cc2)c2ccc(OC(=O)C=Cc3ccccc3)cc12"
A. 0.1816

Q. Requested read-out: Pyrophosphate. Entry: COc1ccc(Br)cc1C1Nc2ccc3ccccc3c2C2=C1C(=O)CC(c1ccccc1)C2 (stereo not shown)
A. 0.2656
